Target desc: T1, activated human complement C1s (human, UniProt P09871 16-688)
T1 sequence: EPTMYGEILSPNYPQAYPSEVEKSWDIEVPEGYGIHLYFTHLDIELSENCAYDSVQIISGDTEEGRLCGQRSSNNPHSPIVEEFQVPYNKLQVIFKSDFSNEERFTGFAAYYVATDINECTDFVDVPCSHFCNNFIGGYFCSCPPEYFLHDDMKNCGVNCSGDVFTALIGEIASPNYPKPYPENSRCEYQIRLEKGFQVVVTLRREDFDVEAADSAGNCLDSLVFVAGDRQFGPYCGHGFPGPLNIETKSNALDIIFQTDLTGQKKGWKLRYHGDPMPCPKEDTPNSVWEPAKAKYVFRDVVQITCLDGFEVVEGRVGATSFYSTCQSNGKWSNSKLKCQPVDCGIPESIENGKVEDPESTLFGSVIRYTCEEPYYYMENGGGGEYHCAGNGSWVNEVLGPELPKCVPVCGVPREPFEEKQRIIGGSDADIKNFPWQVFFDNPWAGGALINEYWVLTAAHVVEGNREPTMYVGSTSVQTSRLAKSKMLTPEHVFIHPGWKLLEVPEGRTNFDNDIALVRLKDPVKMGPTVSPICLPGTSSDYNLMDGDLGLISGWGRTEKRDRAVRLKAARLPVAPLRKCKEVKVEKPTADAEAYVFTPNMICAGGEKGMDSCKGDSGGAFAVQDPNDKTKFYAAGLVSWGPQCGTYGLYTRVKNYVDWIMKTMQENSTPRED
Method notes: cell-based or functional assay
IC50 of classical complement pathway inhibition (commercial CP activation assay): recorded values
The reply should be a number in nM, with the unit left off.

The following binders have reported results that may help.
>  <Binder>
humanized TNT005 variant VH variant 4+Vk variant 5 (antibody, V domains shown, also called VH variant 4 + VL variant 5) VH: QVQLVQSGAEVKKPGASVKVSCTASGFNIKDDYIHWVRQAPGQGLEWIGRIDPADGHTKYAPKFQVKVTITADTSTSTAYMELSSLRSEDTAVYYCARYGYGREVFDYWGQGTTVTVSS VL: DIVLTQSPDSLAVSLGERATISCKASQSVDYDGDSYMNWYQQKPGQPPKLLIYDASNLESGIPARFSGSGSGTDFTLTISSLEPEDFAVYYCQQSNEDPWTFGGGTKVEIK

>  <Result number>
1.54

$$$$
>  <Binder>
humanized TNT005 variant VH variant 5+Vk variant 5 (antibody, V domains shown, also called VH variant 5 + VL variant 5) VH: QVQLVQSGAEVKKPGASVKVSCAASGFNIKDDYIHWVRQAPGQGLEWIGRIDPADGHTKYAPKFQVKVTITADTSTSTAYMELSSLRSEDTAVYYCARYGYGREVFDYWGQGTTVTVSS VL: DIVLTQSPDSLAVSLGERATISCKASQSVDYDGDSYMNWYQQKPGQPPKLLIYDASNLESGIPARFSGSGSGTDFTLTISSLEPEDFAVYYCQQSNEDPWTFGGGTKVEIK

>  <Result number>
1.33

$$$$
>  <Binder>
humanized TNT005 variant VH variant 3+Vk variant 2 (antibody, V domains shown, also called VH variant 3 + VL variant 2) VH: QVQLVQSGAEVKKPGASVKLSCTASGFNIKDDYIHWVKQAPGQGLEWIGRIDPADGHTKYAPKFQVKVTITADTSTSTAYLELSSLRSEDTAVYYCARYGYGREVFDYWGQGTTVTVSS VL: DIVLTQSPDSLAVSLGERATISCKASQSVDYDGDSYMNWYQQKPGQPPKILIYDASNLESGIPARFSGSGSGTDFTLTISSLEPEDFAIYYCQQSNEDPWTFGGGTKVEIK

>  <Result number>
1.26

$$$$

Inquiry: Param item = humanized TNT005 variant VH variant 2+Vk variant 5 (antibody, V domains shown, also called VH variant 2 + VL variant 5) VH: EVQLVQSGAEVKKPGASVKLSCTASGFNIKDDYIHWVKQAPGQGLEWIGRIDPADGHTKYAPKFQVKATITADTSTNTAYLELSSLRSEDTAVYYCARYGYGREVFDYWGQGTTVTVSS VL: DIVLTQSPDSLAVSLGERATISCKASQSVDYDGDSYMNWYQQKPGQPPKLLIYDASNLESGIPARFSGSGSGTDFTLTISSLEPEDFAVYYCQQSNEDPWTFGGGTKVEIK ; retrieve measured IC50 of classical complement pathway inhibition (commercial CP activation assay).
Reply text: 1.27
